assay: endothelial E-selectin expression blockers – imaging, HUVEC, immunofluorescence, MLSMR starter and 10KST1 sets, primary screen (AID 487); settings: HUVEC TNFalpha-induced E-selectin immunofluorescence imaging, at 2 µM; hits give high values;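 also: signal is fraction of cell area covered by stained E-selectin grains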
Listed here: items and their measured inhibition.
# output: bare number, implied unit %

// worked examples, inhibition included
[[record]]
compound = "Cc1csc(SCC(=O)NC(=O)NCc2ccccc2)n1"
experimental_endpoint = "inhibition"
reported_value = -30.3

[[record]]
compound = "COC(=O)Nc1ccc(C)cc1NC(=O)OC"
experimental_endpoint = "inhibition"
reported_value = 16

[[record]]
compound = "O=C(CCn1c(=O)sc2ccccc21)NC1=NCCS1"
experimental_endpoint = "inhibition"
reported_value = -118

[[record]]
compound = "N#Cc1nc(-c2cccs2)oc1NCc1ccc(Cl)cc1"
experimental_endpoint = "inhibition"
reported_value = 47.2

[[record]]
compound = "CCCCC(c1nnnn1C1CCCC1)N1CCN(C2CCCCC2)CC1 (stereo not drawn)"
experimental_endpoint = "inhibition"
reported_value = -57.4

[[record]]
compound = "O=c1c2nnn(Cc3ccccc3)c2ncn1-c1ccccc1"
experimental_endpoint = "inhibition"
reported_value = 9


Q: For the compound `CCOC(=O)Nc1cc(OCC)c(NC(=O)C2CC2)cc1OCC` , what inhibition is on record?
Result: -52.7

Q: For the compound CC(O)CN(Cc1cccc(Cl)c1)CC(C)O (stereo not drawn) , what inhibition is on record?
Result: 10.2

Q: For the compound `CC(=O)Nc1nc(C)c(-c2csc(Nc3ccc(O)cc3)n2)s1` , what inhibition is on record?
Result: -154

Q: For the compound `COC(=O)CN(c1ccc2c(c1)OCO2)S(C)(=O)=O` , what inhibition is on record?
Result: 62.9

Q: For the compound `Clc1ccc(Cc2nn3c(-c4ccncc4)nnc3s2)cc1` , what inhibition is on record?
Result: -102

Q: For the compound `CCOc1ccccc1Nc1ncnc2ccccc12` , what inhibition is on record?
Result: -40.8

Q: For the compound `Cc1cc(Cl)c(S(=O)(=O)NC2CCCCC2)cc1OCC(=O)Nc1nncs1` , what inhibition is on record?
Result: -32.9

Q: For the compound `O=C(Nc1ccc2c(c1)OCO2)c1ccc(Br)c(S(=O)(=O)N2CCCC2)c1` , what inhibition is on record?
Result: -99.5

Q: For the compound `CCOCCCNC(=O)C1CCN(C(=O)Nc2ccc(Cl)cc2)CC1` , what inhibition is on record?
Result: -40.5

Q: For the compound `COC(=O)c1cn(-c2ccccc2)nc1C(=O)OC` , what inhibition is on record?
Result: 24

Q: For the compound `Cc1nc2nc(SCC(=O)NCc3ccco3)nn2c(C)c1Cc1ccccc1` , what inhibition is on record?
Result: -10.5

Q: For the compound COc1ccc(OC(C)C(=O)N2CC(C)OC(C)C2)cc1 (stereo not drawn) , what inhibition is on record?
Result: -7.5
